assay: Preliminary pharmacokinetics in trial 1403-0001 (Arm A D1 q3w, Arm B D1 D8 q4w); format: in vivo, human; details: human, plasma, oral, 45 mg, Arm A D1 q3w, 45 mg, N=6; read-out: t1/2 (gMean) (converted)
MEASUREMENT_LABEL: half-life
Don't forget the unit after the value.

stdin: Fill in the blank: the reported half-life of Cc1c(C(=O)O)ccc2c3n(nc12)[C@@H]1[C@H](C3)N(CC2CC2)[C@@]2(C(=O)Nc3cc(Cl)ccc32)[C@H]1c1cccc(Cl)c1F is ____.
stdout: 43.7 h

* * *

experiment: Preliminary pharmacokinetics in trial 1403-0001 (Arm A D1 q3w, Arm B D1 D8 q4w); format: in vivo, human; conditions: human, plasma, oral, 60 mg, Day 8, D1 D8 q4w (Arm B), median, N=2; read-out: tmax
MEASUREMENT_LABEL: Tmax (h)
Number in h, nothing else.

stdin: Fill in the blank: the reported Tmax of Cc1c(C(=O)O)ccc2c3n(nc12)[C@@H]1[C@H](C3)N(CC2CC2)[C@@]2(C(=O)Nc3cc(Cl)ccc32)[C@H]1c1cccc(Cl)c1F is ____.
stdout: 16
